Biological target: T1, recombinant human IL-13Rα2 ECD (human, UniProt Q14627 27-343)
T1 construct: Interleukin-13 receptor alpha 2, human, extracellular domain; also called rhIL-13Rα2 ECD; Interleukin-13 receptor alpha 2; source: bought: Sino Biological (Cat. #10350-H08H-20)
T1 sequence (looked up): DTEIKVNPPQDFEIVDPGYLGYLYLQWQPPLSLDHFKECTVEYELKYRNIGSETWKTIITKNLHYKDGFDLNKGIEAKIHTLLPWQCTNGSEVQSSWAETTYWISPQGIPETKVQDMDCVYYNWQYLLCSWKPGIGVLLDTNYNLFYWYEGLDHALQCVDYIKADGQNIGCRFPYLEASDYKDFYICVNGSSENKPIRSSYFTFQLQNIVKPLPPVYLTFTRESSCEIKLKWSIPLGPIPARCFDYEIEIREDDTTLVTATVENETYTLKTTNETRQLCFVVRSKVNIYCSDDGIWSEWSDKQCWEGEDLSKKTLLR
Assay: BLI; Octet K2; CHI3L1 or IL-13Rα2 ECD immobilised on AR2G biosensor by amine coupling; CD44v3 peptide (15.6, 31.1, 62.5, 125, 250 μM) in the mobile phase; 20 mM HEPES, 150 mM NaCl, 0.05% Tween-20, 1 mM MgCl2 (or 5 mM EDTA); pH 7.4 in the results (pH 7.5 in the methods); heterogeneous ligand model
Conditions: both partners purified
ENDPOINT NAME: Kd

binder="GWEPNEENEDERDRHLSFSGSGIDDDEDFISSTI (peptide fragment of the v3 domain of CD44; contains the SGSG heparan sulfate assembly motif; also called peptide fragment of CD44v3 domain; source: synthetic peptide (ChinaPeptides Co., Ltd.)) [CD44v3 peptide]" endpoint_name=Kd data_value="563 µM"
